Tested on: L. donovani promastigotes
Assay: Dose and time-dependent inhibitory effect on L. donovani promastigotes (2, 4, 6, 24 hours exposure)
Type: cell-based, Leishmania donovani
Settings: Leishmania donovani, read-out: Antileishmanial Activity IC50 (μM) 4 hours; promastigotes; 4 hours exposure; means ± S.E.
Consider the following compounds and their measured log10 of IC50 readings.
READOUT NAME: log10 of IC50 (log10 of the value in µM)

{"COMPOUND": "O=C1C(Br)=C(N(C(=O)c2ccccc2Cl)C(=O)c2ccccc2Cl)C(=O)c2ccccc21 [IMDNQ5]", "TARGET DESC": "L. donovani promastigotes", "ASSAY RESULT": -0.24}
{"COMPOUND": "O=C1C(Cl)=C(N(C(=O)c2ccc(Cl)cc2)C(=O)c2ccc(Cl)cc2)C(=O)c2ccccc21 [IMDNQ1]", "TARGET DESC": "L. donovani promastigotes", "ASSAY RESULT": 3.04}
{"COMPOUND": "COc1ccc(C(=O)N(C(=O)c2ccc(OC)cc2)C2=C(Cl)C(=O)c3ccccc3C2=O)cc1 [IMDNQ9]", "TARGET DESC": "L. donovani promastigotes", "ASSAY RESULT": 1.37}
{"COMPOUND": "COc1cc(C(=O)N(C(=O)c2cc(OC)c(OC)c(OC)c2)C2=C(Cl)C(=O)c3ccccc3C2=O)cc(OC)c1OC [IMDNQ11]", "TARGET DESC": "L. donovani promastigotes", "ASSAY RESULT": 1.36}
{"COMPOUND": "O=C1C(Cl)=C(N(C(=O)c2ccc(F)cc2)C(=O)c2ccc(F)cc2)C(=O)c2ccccc21 [IMDNQ3]", "TARGET DESC": "L. donovani promastigotes", "ASSAY RESULT": 1.62}

---

Consider the following compounds and their measured IC50 readings.
Tested on: L. donovani promastigotes
Experiment: Antileishmanial activity on L. donovani promastigotes (resazurin cell viability assay)
Format: cell-based, Leishmania donovani
Details: Leishmania donovani, L. donovani promastigotes; resazurin assay; 0.03 to 44 μM; means ± S.E. of three experiments; read-out: IC50 (μM) Promastigotes

{"LINE NOTATION": "COc1cc(C(=O)N(C(=O)c2cc(OC)c(OC)c(OC)c2)C2=C(Cl)C(=O)c3ccccc3C2=O)cc(OC)c1OC", "SCALE UNIT": "µM", "IC50": 22.9}
{"LINE NOTATION": "O=C1C(Br)=C(N(C(=O)c2ccccc2Cl)C(=O)c2ccccc2Cl)C(=O)c2ccccc21", "SCALE UNIT": "µM", "IC50": 31.3}
{"LINE NOTATION": "O=C1C(Cl)=C(N(C(=O)c2ccc(Cl)cc2)C(=O)c2ccc(Cl)cc2)C(=O)c2ccccc21", "SCALE UNIT": "µM", "IC50": 1.84}
{"LINE NOTATION": "COc1ccc(C(=O)N(C(=O)c2ccc(OC)cc2)C2=C(Cl)C(=O)c3ccccc3C2=O)cc1", "SCALE UNIT": "µM", "IC50": 5.64}
{"LINE NOTATION": "O=C1C(Cl)=C(N(C(=O)c2ccc(F)cc2)C(=O)c2ccc(F)cc2)C(=O)c2ccccc21", "SCALE UNIT": "µM", "IC50": 10.8}

---

Consider the following compounds and their measured melting point readings.

{"LINE NOTATION": "O=C1C(Br)=C(N(C(=O)c2ccccc2Cl)C(=O)c2ccccc2Cl)C(=O)c2ccccc21", "melting point": "232 to 234 °C"}
{"LINE NOTATION": "COc1ccc(C(=O)N(C(=O)c2ccc(OC)cc2)C2=C(Cl)C(=O)c3ccccc3C2=O)cc1", "melting point": "283 to 287 °C"}
{"LINE NOTATION": "O=C1C(Cl)=C(N(C(=O)c2cccc(Cl)c2)C(=O)c2cccc(Cl)c2)C(=O)c2ccccc21", "melting point": "258 to 260 °C"}
{"LINE NOTATION": "COc1cc(C(=O)N(C(=O)c2cc(OC)c(OC)c(OC)c2)C2=C(Cl)C(=O)c3ccccc3C2=O)cc(OC)c1OC", "melting point": "171 to 172 °C"}
{"LINE NOTATION": "O=C1C(Cl)=C(N(C(=O)c2ccc(Cl)cc2)C(=O)c2ccc(Cl)cc2)C(=O)c2ccccc21", "melting point": "212 to 213 °C"}
{"LINE NOTATION": "O=C1C(Cl)=C(N(C(=O)c2ccc(F)cc2)C(=O)c2ccc(F)cc2)C(=O)c2ccccc21", "melting point": "284 to 286 °C"}
